Every entry's value here was drawn from the supplement of paper PMC12632987.

- Assayed target: GABARAPL2, P60520
- Sequence (P60520 whole entry, the tested form may be a part): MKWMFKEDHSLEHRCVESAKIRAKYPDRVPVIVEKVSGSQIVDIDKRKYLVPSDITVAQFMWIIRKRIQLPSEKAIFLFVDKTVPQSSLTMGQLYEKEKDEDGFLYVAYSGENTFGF
- Test name: median log2 fold change of GCK-ALFA target abundance (FLAG IP / Myc IP barcode read proportion) (log2 ratio); each designed protein is fused to an ALFA-tag nanobody in HEK293 cells to bring the named protein to FLAG-tagged glucokinase (GCK); Myc marks an untargeted standard; higher = target protein stabilised (more abundant)
- Condition notes: target protein: 3xFLAG-MCP-GCK-ALFA reporter; HEK293 landing pad (RPLP)
Endpoint name: median log2 fold change
Give only the figure.

# Binder, median log2 fold change
measured = [
    ("GBRAPL2_128_7297 (protein) MKLVEIDIDINNEEEAKLVIEVLEEIAKEGSEEVKKLAEAAKDLAESLAEEGYGEKGTVVDILSEEDAKELKELYEKLSKKYGKEKIEKRIKLEVDDIPP", -0.194),
    ("GBRAPL2_0_7204 (protein) YLEKIEKAKSLSPKELFEALKKLVKELAKDKSVSPEEKEEILEAIIKLAAERVKETKTEEDEKAFEEIVKEAVKVAEKIDPNLAAYVRTYAGSLLYEIES", 0.0789),
    ("GBRAPL2_0_7237 (protein) MEELLEKLLSLSLEEAKKEIKKLADEVIELLRKDPEKGKEAAEELAEVFSEYLEKTKNEELEEVIDEAIDKIVEEMSKIDPREAAYIDSIFGSAIMEVEG", -0.0207),
]

Could you now consider this next binder?
Returns the measured median log2 fold change for the input binder. Input: GBRAPL2_85_7419 (protein) MEKVTIVARSLAEAVDMAVDVVEALEPEGEIEVDLIVLVPSSELEAALAALPAAAAELKARLQELARRHPGLVVRAEVEIFDSDTREFHPDVRRFTVRDE
0.0842
